Taken from patent US12428403B2.

Kindly supply the reported IC50 values for the records listed here.
Biological target: UniProt:P31391
Assay: SSTR4 I-125 somatostatin competition binding assay (CHO-K1 membranes)
Parameters: host or cells: CHO-K1
Details: competition with I-125 labeled somatostatin, membranes from CHO-K1 overexpressing SSTR4; read-out: SSTR4 Binding pIC50 (converted)
Could you give me the number in µM? Just the number is fine.

Reported IC50 ( CC(c1ccc(F)cc1)c1nc(-c2nccs2)cnc1NCCN1CCCC1 (centres unmarked) ) = 0.038

Reported IC50 ( C[C@H](c1ccc(F)cc1)c1nc(C(N)=O)cnc1NCCN1CCCC1 (single isomer, unassigned) ) = 0.0245

Reported IC50 ( `Cc1cccc(Cc2nnc(C)nc2NCCN2CCC2)c1` ) = 0.0427

Reported IC50 ( `C[C@H](c1ccc(F)cc1)c1nc(C(=O)N(C)C2CC2)cnc1NCCN1CCCC1` ) = 0.162

Reported IC50 ( Cc1nnc([C@H](C)c2ccc(F)cc2)c(N[C@@H]2CCN(C)C2)n1 (single isomer, unassigned) ) = 0.0933

Reported IC50 ( Cc1nnc(C(C)c2ccc(F)cc2)c(NCCN2CCC2)n1 (centres unmarked) ) = 0.0282

Reported IC50 ( CNC(=O)c1cnc(NCCN2CCCC2)c([C@@H](C)c2ccc(F)cc2)n1 (single isomer, unassigned) ) = 0.0631

Reported IC50 ( COCCNC(=O)c1nc(C(C)c2ccc(F)cc2)c(NCCN2CCCC2)nc1C (centres unmarked) ) = 0.0162

Reported IC50 ( CNC(=O)c1nc(Cc2ccc(F)cc2)c(NCCN2CCCC2)nc1C [Example 43] ) = 0.0398

Reported IC50 ( Cc1nc(NCCN2CCCC2)c(C(C)c2ccc(F)cc2)nc1C(=O)N(C)C (centres unmarked) ) = 0.0117

Reported IC50 ( CNC(=O)c1nc(C(C)c2ccc(F)cc2)c(NCCN2CCCC2)nc1C (centres unmarked) ) = 0.0166

Reported IC50 ( `CO[C@H]1CCN(C(=O)c2cnc(NCCN3CCCC3)c([C@H](C)c3ccc(F)cc3)n2)C1` ) = 0.38

Reported IC50 ( CC(c1ccc(F)cc1)c1nc(C(N)=O)cnc1NCCN1CCCC1 (centres unmarked) ) = 0.0501

Reported IC50 ( `CO[C@@H]1CCN(C(=O)c2cnc(NCCN3CCCC3)c([C@H](C)c3ccc(F)cc3)n2)C1` ) = 0.214

Reported IC50 ( `Cc1nc(NCCN2CCCC2)c(Cc2ccc(F)cc2)nc1C(=O)N(C)C` ) = 0.138

Reported IC50 ( Cc1nc(NCCN2CCCC2)c(C(C)c2ccc(F)cc2)nc1C(=O)N1CCC(F)(F)C1 (centres unmarked) ) = 0.0407

Reported IC50 ( Cc1nc(NCCN2CCCC2)c(C(C)c2ccc(F)cc2)nc1C(=O)NC1CC(F)(F)C1 (centres unmarked) ) = 0.0479

====

Target: SSTR4 (Homo sapiens, UniProt P31391)
Sequence (P31391 whole entry): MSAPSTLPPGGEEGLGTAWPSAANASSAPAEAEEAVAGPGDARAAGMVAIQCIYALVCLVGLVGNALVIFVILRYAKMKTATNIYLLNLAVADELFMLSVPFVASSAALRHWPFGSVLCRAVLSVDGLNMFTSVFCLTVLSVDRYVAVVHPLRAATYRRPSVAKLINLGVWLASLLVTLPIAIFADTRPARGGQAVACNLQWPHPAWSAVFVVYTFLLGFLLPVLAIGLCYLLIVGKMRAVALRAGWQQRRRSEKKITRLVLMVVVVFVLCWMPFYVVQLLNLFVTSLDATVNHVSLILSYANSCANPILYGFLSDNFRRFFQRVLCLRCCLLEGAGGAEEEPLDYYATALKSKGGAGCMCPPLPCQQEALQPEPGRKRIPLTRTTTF
Test: cell-based
pEC50: −log10 of the molar value.
Assign 1 whenever pEC50 does not fall below 7; assign -1 whenever it does.

Task: # check: pEC50 of Cc1nc(NCCN2CCCC2)c(Cc2ccc(F)cc2)nc1C(=O)N(C)C [Example 42] is greater than or equal to 7
Output: 1

Task: # check: pEC50 of C[C@H]1C[C@@H](Nc2nccnc2Cc2ccc(F)cc2)CCN1C (single isomer, unassigned) [Example 114] is greater than or equal to 7
Output: -1

Task: # check: pEC50 of CN1CCCCC1CNc1nccnc1Cc1ccc(F)cc1 (centres unmarked) [Example 112] is greater than or equal to 7
Output: -1

Task: # check: pEC50 of Cc1nnc([C@@H](C)c2ccc(F)cc2)c(N[C@H]2CCN(C)C2)n1 (single isomer, unassigned) [Example 147] is greater than or equal to 7
Output: -1

Task: # check: pEC50 of CC1CN(C)CCC1Nc1ncc(C(N)=O)cc1Cc1ccc(F)cc1 (mixture of isomers) [Example 102] is greater than or equal to 7
Output: -1

Task: # check: pEC50 of Cc1cccc(Cc2ncc(C(C)C)nc2NCCN2CCC2)c1 [Example 87] is greater than or equal to 7
Output: 1
